# Test Details: in vivo
# Design: species or system mice
# Condition Description: male, NODSCID 1L2RγKO, mouse, iv, total radioactivity, Spleen uptake
Field: tissue uptake at 4 h. Provide a value for each of the compounds that follow.
One number for each entry, in %ID/g.

Compound	Measurement Kind	Endpoint Value
O=C(O)CCC[C@H](NC(=O)N[C@@H](CCCCNC(=O)[C@H](Cc1c2ccccc2cc2ccccc12)NC(=O)[C@H]1CC[C@H](CNC(=O)[C@H](CCCCNC(=O)CN2CCN(CC(=O)O)CCN(CC(=O)O)CCN(CC(=O)O)CC2)NC(=O)CNC(=O)CCCc2ccc(Cl)cc2)CC1)C(=O)O)C(=O)O [177Lu-HTK03153, metal not drawn]	tissue uptake at 4 h	1.54

Moving on to another compound below.
tissue uptake at 4 h reported for this compound COc1ccc(CCCC(=O)NCC(=O)N[C@@H](CCCCNC(=O)CN2CCN(CC(=O)O)CCN(CC(=O)O)CCN(CC(=O)O)CC2)C(=O)NC[C@H]2CC[C@H](C(=O)N[C@@H](Cc3c4ccccc4cc4ccccc34)C(=O)NCCCC[C@H](NC(=O)N[C@@H](COCC(=O)O)C(=O)O)C(=O)O)CC2)cc1 [177Lu-HTK04028, metal not drawn] : 1.44

###

# Test Details: in vivo
# Parameters: species or system mice
# Condition Description: male, NODSCID 1L2RγKO, mouse, iv, total radioactivity, Testes uptake
Measurement Kind: tissue uptake at 4 h (%ID/g)
One number for each entry, in %ID/g.

Here's what some known entries look like.
Molecule	Value Unit	Endpoint Value
COc1ccc(CCCC(=O)NCC(=O)N[C@@H](CCCCNC(=O)CN2CCN(CC(=O)O)CCN(CC(=O)O)CCN(CC(=O)O)CC2)C(=O)NC[C@H]2CC[C@H](C(=O)N[C@@H](Cc3c4ccccc4cc4ccccc34)C(=O)NCCCC[C@H](NC(=O)N[C@@H](CSCC(=O)O)C(=O)O)C(=O)O)CC2)cc1 [177Lu-HTK04048, metal not drawn]	%ID/g	2.68
COc1ccc(CCCC(=O)NCC(=O)N[C@@H](CCCCNC(=O)CN2CCN(CC(=O)O)CCN(CC(=O)O)CCN(CC(=O)O)CC2)C(=O)NC[C@H]2CC[C@H](C(=O)N[C@@H](Cc3c4ccccc4cc4ccccc34)C(=O)NCCCC[C@H](NC(=O)N[C@@H](COCC(=O)O)C(=O)O)C(=O)O)CC2)cc1 [177Lu-HTK04028, metal not drawn]	%ID/g	2.66
O=C(O)CCC[C@H](NC(=O)N[C@@H](CCCCNC(=O)[C@H](Cc1c2ccccc2cc2ccccc12)NC(=O)[C@H]1CC[C@H](CNC(=O)[C@H](CCCCNC(=O)CN2CCN(CC(=O)O)CCN(CC(=O)O)CCN(CC(=O)O)CC2)NC(=O)CNC(=O)CCCc2ccc(Cl)cc2)CC1)C(=O)O)C(=O)O [177Lu-HTK03153, metal not drawn]	%ID/g	3.45
O=C(O)CCC[C@H](NC(=O)N[C@@H](CCCCNC(=O)[C@H](Cc1c2ccccc2cc2ccccc12)NC(=O)[C@H]1CC[C@H](CNC(=O)CN2CCN(CC(=O)O)CCN(CC(=O)O)CCN(CC(=O)O)CC2)CC1)C(=O)O)C(=O)O [177Lu-HTK03149, metal not drawn]	%ID/g	0.06

Moving on to another molecule below.
tissue uptake at 4 h reported for this molecule COc1ccc(CCCC(=O)NCC(=O)N[C@@H](CCCCNC(=O)CN2CCN(CC(=O)O)CCN(CC(=O)O)CCN(CC(=O)O)CC2)C(=O)NC[C@H]2CC[C@H](C(=O)N[C@@H](Cc3c4ccccc4cc4ccccc34)C(=O)NCCCC[C@H](NC(=O)N[C@@H](CCCC(=O)O)C(=O)O)C(=O)O)CC2)cc1 [177Lu-HTK03170, metal not drawn] : 1.83
